The following molecules are listed with their measured IC50 values.
target: DGKζ (Homo sapiens (Human)); assay: In vitro DGKζ inhibition assay (ADP-Glo); settings: second column of Table A, head printed DGKα, presumably DGKζ; His-tagged human recombinant DGKζ 0.4 nM, 30 μM ATP, 20 μM DLG
Sequence (Q13574 whole entry): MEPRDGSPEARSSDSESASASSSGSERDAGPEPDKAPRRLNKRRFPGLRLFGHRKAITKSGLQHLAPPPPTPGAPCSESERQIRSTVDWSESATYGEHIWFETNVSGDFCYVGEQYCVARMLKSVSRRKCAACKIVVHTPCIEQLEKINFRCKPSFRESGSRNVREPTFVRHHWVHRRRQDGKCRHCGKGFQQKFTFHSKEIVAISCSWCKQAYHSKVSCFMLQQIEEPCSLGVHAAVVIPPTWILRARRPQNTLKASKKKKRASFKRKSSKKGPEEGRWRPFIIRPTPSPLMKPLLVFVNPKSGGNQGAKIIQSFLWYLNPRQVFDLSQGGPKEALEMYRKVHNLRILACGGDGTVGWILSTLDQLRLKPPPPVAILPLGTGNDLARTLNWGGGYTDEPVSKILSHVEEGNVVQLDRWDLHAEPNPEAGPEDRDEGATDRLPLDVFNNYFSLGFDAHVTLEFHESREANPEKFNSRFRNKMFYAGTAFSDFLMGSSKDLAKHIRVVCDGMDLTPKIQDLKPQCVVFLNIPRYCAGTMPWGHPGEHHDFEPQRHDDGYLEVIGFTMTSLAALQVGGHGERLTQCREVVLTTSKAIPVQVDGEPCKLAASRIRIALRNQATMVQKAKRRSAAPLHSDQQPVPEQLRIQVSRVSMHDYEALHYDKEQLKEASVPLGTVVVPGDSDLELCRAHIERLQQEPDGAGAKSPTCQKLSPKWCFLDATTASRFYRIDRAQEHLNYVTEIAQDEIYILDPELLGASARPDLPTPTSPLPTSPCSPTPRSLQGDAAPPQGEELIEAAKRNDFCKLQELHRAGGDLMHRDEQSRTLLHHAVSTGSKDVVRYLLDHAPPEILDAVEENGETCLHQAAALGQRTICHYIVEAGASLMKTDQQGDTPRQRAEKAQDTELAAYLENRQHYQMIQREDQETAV

Cc1nc2c(N3C[C@@H](CO)N(C(c4ccc(C(F)(F)F)cc4)C4CC(F)(F)C4)C[C@@H]3C)nc(=O)n(C)c2n1C[C@@H]1CCCO1 (stereo partly drawn)    ≤ 10 nM

Look up and report measured IC50 for this entry: Cc1nc2c(N3C[C@@H](C)N(C(c4ccc(C(F)(F)F)cc4)C4CC(F)(F)C4)C[C@@H]3C)cc(=O)n(C)c2n1C[C@@H]1CCCO1 (stereo partly drawn)
≤ 100 nM

Answer with the recorded IC50 of CC[C@@H]1CN(c2nc(=O)n(C)c3c2nc(C)n3C[C@@H]2CCCO2)[C@@H](C)CN1[C@H](C)c1ccc(C(F)(F)F)cc1 only.
≤ 10 nM
